These entries and their values trace back to patent US20230192622A1.

Quick reference for CC50 at 3 days among some molecules
- Assay comment: in vitro
- Particulars: human
Numbers only here, please. The scale is µM.

Consider the worked cases shown below.
CCCCn1c(=O)c2cc(F)c(OC3CCOC3)cc2c2cc(C(O)(C(F)(F)F)C(F)(F)F)ccc21 (stereo not shown) ... 13.9
CCCCn1c(=O)c2cc(O)c(OC3(C)CNC3)cc2c2cc(C(O)(C(F)(F)F)C(F)(F)F)ccc21 ... 10.6
CCCCn1c(=O)c2cc(F)c(OCCNC(C)=O)cc2c2cc(C(O)(C(F)(F)F)C(F)(F)F)ccc21 ... 13

Query string: Give a short answer stating reported CC50 at 3 days for CCCCn1c(=O)c2cc(F)c(O[C@@H]3COC[C@@H]3O)cc2c2cc(C(O)(C(F)(F)F)C(F)(F)F)ccc21 .
Result string: 18.2

Query string: Give a short answer stating reported CC50 at 3 days for CCCCn1c(=O)c2cc(F)c(OCCO)cc2c2cc(C(O)(C(F)(F)F)C(F)(F)F)ccc21 .
Result string: 19

###

- Assay comment: in vitro
- Particulars: human
Quick reference for CC50 at 3 days among some compounds
Numbers only here, please. The scale is µM.

Query string: Give a short answer stating reported CC50 at 3 days for CCCCn1c(=O)c2cc(NC(=O)C3CC3)ccc2c2cc(C(O)(C(F)(F)F)C(F)(F)F)ccc21 .
Result string: 8.4

Query string: Give a short answer stating reported CC50 at 3 days for CCCCn1c(=O)c2ccc(O)cc2c2cc(C(O)(C(F)(F)F)C(F)(F)F)ccc21 .
Result string: 16.9

Query string: Give a short answer stating reported CC50 at 3 days for CCCCn1c(=O)c2cc(F)c(OC3COC3)cc2c2cc(C(O)(C(F)(F)F)C(F)(F)F)ccc21 .
Result string: 19.1

###

- System: SARS-CoV-2 (WK-521)
- Assay comment: microbe, parasite or virus in culture
- Assay type: cell-based
- Particulars: Severe acute respiratory syndrome coronavirus 2, HEK-293T, 72 h; HEK293T/ACE2 cells, MOI=0.1, 3 days, qPCR of viral RNA in supernatant; read-out: IC50(μM) (footnote defines IC90: 90% inhibitory concentration)
Criterion: IC90 strictly less than 5 µM. Met: YES. Not met: NO.

Query string: Dear colleague, could you confirm whether IC90 of CCCCn1c(=O)c2ccc(OC)cc2c2cc(C(O)(C(F)(F)F)C(F)(F)F)ccc21 falls below 5 µM? Thanks.
Result string: NO

Query string: Dear colleague, could you confirm whether IC90 of CCCCn1c(=O)c2ccc(O)cc2c2cc(C(O)(C(F)(F)F)C(F)(F)F)ccc21 falls below 5 µM? Thanks.
Result string: YES

Query string: Dear colleague, could you confirm whether IC90 of CCCCn1c(=O)c2cc(F)c(OCCNC(C)=O)cc2c2cc(C(O)(C(F)(F)F)C(F)(F)F)ccc21 falls below 5 µM? Thanks.
Result string: NO

Query string: Dear colleague, could you confirm whether IC90 of CCCCn1c(=O)c2cc(F)c(OCC(N)=O)cc2c2cc(C(O)(C(F)(F)F)C(F)(F)F)ccc21 falls below 5 µM? Thanks.
Result string: YES

Query string: Dear colleague, could you confirm whether IC90 of CCCCn1c(=O)c2cc(O)ccc2c2cc(C(O)(C(F)(F)F)C(F)(F)F)cc(OC)c21 falls below 5 µM? Thanks.
Result string: YES

Query string: Dear colleague, could you confirm whether IC90 of CCCCn1c(=O)c2ccc(OC(CO)CO)cc2c2cc(C(O)(C(F)(F)F)C(F)(F)F)ccc21 falls below 5 µM? Thanks.
Result string: YES

Query string: Dear colleague, could you confirm whether IC90 of CCCCn1c(=O)c2cc(F)c(OC3COC3)cc2c2cc(C(O)(C(F)(F)F)C(F)(F)F)ccc21 falls below 5 µM? Thanks.
Result string: NO

Query string: Dear colleague, could you confirm whether IC90 of CCCCn1c(=O)c2cc(OC3CCOC3)c(OC3CCOC3)cc2c2cc(C(O)(C(F)(F)F)C(F)(F)F)ccc21 (stereo not shown) falls below 5 µM? Thanks.
Result string: NO

Query string: Dear colleague, could you confirm whether IC90 of CCCCn1c(=O)c2ccc(OCC(=O)NC)cc2c2cc(C(O)(C(F)(F)F)C(F)(F)F)ccc21 falls below 5 µM? Thanks.
Result string: YES

Query string: Dear colleague, could you confirm whether IC90 of CCCCn1c(=O)c2cc(O)c(OC3(C)CNC3)cc2c2cc(C(O)(C(F)(F)F)C(F)(F)F)ccc21 falls below 5 µM? Thanks.
Result string: YES

Query string: Dear colleague, could you confirm whether IC90 of CCCCn1c(=O)c2ccc(OCC(C)=O)cc2c2cc(C(O)(C(F)(F)F)C(F)(F)F)ccc21 falls below 5 µM? Thanks.
Result string: YES

Query string: Dear colleague, could you confirm whether IC90 of CCCCn1c(=O)c2cc3c(cc2c2cc(C(O)(C(F)(F)F)C(F)(F)F)ccc21)OC1COCC1O3 (stereo not shown) falls below 5 µM? Thanks.
Result string: NO

Query string: Dear colleague, could you confirm whether IC90 of CCCCn1c(=O)c2ccc(OCC(C)(C)O)cc2c2cc(C(O)(C(F)(F)F)C(F)(F)F)ccc21 falls below 5 µM? Thanks.
Result string: YES

Query string: Dear colleague, could you confirm whether IC90 of CCCCn1c(=O)c2cc(F)c(O[C@@H]3COC[C@@H]3O)cc2c2cc(C(O)(C(F)(F)F)C(F)(F)F)ccc21 falls below 5 µM? Thanks.
Result string: NO

Query string: Dear colleague, could you confirm whether IC90 of CCCCn1c(=O)c2cc(F)c(OCCN(C)C)cc2c2cc(C(O)(C(F)(F)F)C(F)(F)F)ccc21 falls below 5 µM? Thanks.
Result string: NO
